System: BT-549
Assay: NCI tumour cell line growth inhibition, 48 h
Activity calls are given as the source filed them. Rule as the data show it: active = GI50 up to about 1.1 µM and inactive = higher.
Labels: 1 (yes) (active), 0 (no) (inactive)

>  <compound>
O=C(Nc1sccc1S(=O)(=O)c1ccc(Cl)cc1)c1ccccc1

>  <study.target>
BT-549

>  <class>
0 (no)

$$$$
>  <compound>
Cn1c(=O)oc2cc(C(=S)N3CCC(Cc4ccccc4)CC3)ccc21

>  <study.target>
BT-549

>  <class>
0 (no)

$$$$
>  <compound>
COc1c2cc(C(C)(C)C)cc1Cc1cccc(c1OCc1cccc([N+](=O)[O-])c1)Cc1cc(C(C)(C)C)cc(c1OC)Cc1cccc(c1OCc1cccc([N+](=O)[O-])c1)Cc1cc(C(C)(C)C)cc(c1OC)Cc1cccc(c1OCc1cccc([N+](=O)[O-])c1)C2

>  <study.target>
BT-549

>  <class>
1 (yes)

$$$$
>  <compound>
O=C(O)c1nn[nH]c1Cl

>  <study.target>
BT-549

>  <class>
0 (no)

$$$$
>  <compound>
COC(=O)c1ccccc1C1CN=NC12Cc1cccc(C)c1C2=O (stereo not given)

>  <study.target>
BT-549

>  <class>
0 (no)

$$$$
>  <compound>
COc1cc(C2SCC(=O)N2c2cccc(Cl)c2)cc(OC)c1OC (stereo not given)

>  <study.target>
BT-549

>  <class>
0 (no)

$$$$
>  <compound>
N#CC(c1ccccc1)N(CCc1ccccc1)C(=O)c1ccccc1 (stereo not given)

>  <study.target>
BT-549

>  <class>
0 (no)

$$$$
>  <compound>
CC(C)(C)c1c2c(c(C(C)(C)C)c3c1OCN(Cc1ccccc1)C3)OCN(Cc1ccccc1)C2

>  <study.target>
BT-549

>  <class>
0 (no)

$$$$
>  <compound>
CC(=O)Nc1ccc2c3c(cc(O)c2c1)N(C(=O)CCCCCC(=O)Nc1ccc2c4c(cc(O)c2c1)N(C(=O)OC(C)(C)C)CC4CCl)CC3CCl (stereo not given)

>  <study.target>
BT-549

>  <class>
0 (no)

$$$$
>  <compound>
CCOC(=O)c1c(Br)c(-c2ccc(OC)cc2)c(Br)n1C

>  <study.target>
BT-549

>  <class>
0 (no)

$$$$
>  <compound>
O=c1oc2ccccc2c(O)c1C(C/C(CCN1CCCC1)=N/O)c1ccccc1 (stereo not given)

>  <study.target>
BT-549

>  <class>
0 (no)

$$$$
>  <compound>
C/C(=N/c1[nH]c(=O)cc2c1C(=O)CC2)N(C)C

>  <study.target>
BT-549

>  <class>
0 (no)

$$$$
>  <compound>
CCCCC/C(C=O)=C\c1ccccc1

>  <study.target>
BT-549

>  <class>
0 (no)

$$$$
>  <compound>
COc1cc(C2c3cc4c(cc3[C@@H](Nc3ccc5c(c3)OCCO5)C3COC(=O)[C@H]23)OCO4)cc(OC)c1O (stereo not given in full)

>  <study.target>
BT-549

>  <class>
0 (no)

$$$$
>  <compound>
COC(=O)[C@H](Cc1c[nH]c2ccccc12)NC(=O)c1ccc(CNC(=O)/C=C/c2cccc(Oc3ccccc3)c2)cc1

>  <study.target>
BT-549

>  <class>
0 (no)

$$$$
>  <compound>
CC(=O)NC(=N/N=C1/C(=O)Nc2ccc(C)cc21)NC(C)=O

>  <study.target>
BT-549

>  <class>
0 (no)

$$$$
>  <compound>
Cc1ccc(NC(=O)/C(Cc2nc3ccc([N+](=O)[O-])cc3nc2O)=N\NC(=O)C[n+]2ccccc2)c(C)c1

>  <study.target>
BT-549

>  <class>
0 (no)

$$$$
>  <compound>
O=c1[nH]c(=O)n(C2CC(O)C(CO)O2)cc1Oc1ccccc1 (stereo not given)

>  <study.target>
BT-549

>  <class>
0 (no)

$$$$
>  <compound>
CC(SC(=S)N1CCCC1)C(=O)Nc1nnc(-c2ccc(Cl)cc2)o1 (stereo not given)

>  <study.target>
BT-549

>  <class>
0 (no)

$$$$
>  <compound>
Cc1c2cc[n+](C)cc2c(C)c2c1sc1ccccc12

>  <study.target>
BT-549

>  <class>
1 (yes)

$$$$
